// provenance: paper PMC9477280

# target.entity: C. rodentium EspA (Citrobacter rodentium ICC168 (parent of …, UniProt D2TKE3))
# experiment: ELISA; dilution ELISA; purified antigen coated directly on Nunc Maxisorp wells, typically 1 μg/mL in PBS overnight at 4°C, blocked with 4% milk in PBS 0.1% Tween; thioredoxin/VHH/E-tag from 125 nM in 1:5 serial dilutions, 1 h 37°C; detected with HRP anti-E-tag; EC50 estimates (apparent affinity); Trace = EC50 >125 nM, poor but detectable
# run.parameters: both partners purified
parameter.measured: pEC50
Reminder that pEC50 is minus the log10 of a molar concentration.

Look over these answered cases.
Please report the recorded pEC50 for JXF-H9 (VHH, also called αEspA-3; JXM-12 (vector name); not shown: thioredoxin, N-terminal, kept; E-tag, C-terminal, kept) VHH: SGGGLAQTGGSLRLSCAASGFRLEYYAVGWFRQAPGKEREGVSCLSGSDGSTYNAEFAKGRFTISRDDAKNTVYLLMNSLKPEDTAVYYCAVAGPSDYQCDLGTRWYHRWGQGTVVTVSA .
9.15

pEC50 for JYB-B1 (VHH, also called αEspA-5; JYE-1 (vector name); not shown: thioredoxin, N-terminal, kept; E-tag, C-terminal, kept) VHH: TGGGLVQAGGSLRLSCAISGFSLGDYAIGWFRQAPEKEREGVAFSGSLGNTYYPDSMKGRFTISRDDAENAVYLEMKNLKPEDTAVYRCTSGGTFDAVVLGLSTYWGQGTQVTVSS ?
9.52

For JYB-D1 (VHH, also called αEspA-7; JYE-3 (vector name); not shown: thioredoxin, N-terminal, kept; E-tag, C-terminal, kept) VHH: TGGGLVQAGGSLRLSCAASGNTFSYTAMAWFRQAPGKQRELVARISSGRGPTKYADSVKGRFTISRDNTLNTVWLQMNDLKPEDTAVYFCNTLKYSGESSYIAGDSWGQGTQVTVSS , what is its reported pEC50?
8.52

Dear colleague, I am looking for the recorded pEC50 of the following binder: JYB-H6 (VHH, also called αEspA-9; JYE-5 (vector name); not shown: thioredoxin, N-terminal, kept; E-tag, C-terminal, kept) VHH: TGGGLVQPGGSLRLSCVASGFILDAYTIGWFRQAPGKEREGVASINGSGFSTNYADSVKGRFTISRDNAKNTVWLQMNSLKPEDTAVYYCAAALGLLTPRLESTPFDDWGQGTQVTVSS
9.52

What value of pEC50 has been recorded for this entry: JXF-D8 (VHH, also called αEspA-2; JXM-8 (vector name); not shown: thioredoxin, N-terminal, kept; E-tag, C-terminal, kept) VHH: SGGALVQPGGSLRLSCAASGINLDYYAIGWFRQAPGKERKGVSCISHVDDDRIYYSDSVKGRFTISRDNAKNTVYLQMNSLEPEDTAVYYCATAGPSDYPCDLELWTYRRWGQGTQVTVSS
9.15

Find the recorded pEC50 belonging to JXF-D7 (VHH, also called αEspA-1; JXM-6 (vector name); not shown: thioredoxin, N-terminal, kept; E-tag, C-terminal, kept) VHH: SGGGLVQTGGSLRLSCSASGFALEYYAVGWFRQAPGKEREGVSCFSGSDGSKFHAQFVKGRFTISLDKEKNTVDLTMNNLKPEDTAVYYCAVAGPSDHQCDLGMTWYHRWGQGTQVTVSS and report it.
9.15

# next binder below
What measured pEC50 goes with JYB-B8 (VHH, also called αEspA-6; JYE-2 (vector name); not shown: thioredoxin, N-terminal, kept; E-tag, C-terminal, kept) VHH: TGGGLVQPGGSLRLSCAASGFTFSTYWMYWVRQAPGKGLEWVSTIDTGGSDTYYADSVKGRFTISRDNVKNTLYLQMDNLKPEDTALYYCGSSRDIVIVTTLRDFDYWGQGTQVTVFS ?
9.15
